Below, each of the compounds is paired with its reported inhibition at 10 µM value.
# Test system: SK-OV-3
# assay: Antiproliferative activity against human SKOV3 cells at 10 uM after 96 hrs by MTT assay
# Format: functional
# condition.label: SK-OV-3, 96 h
Report the value in % with no unit label.

• CCC(C)C(NC(=O)[C@]12CC[C@@H](C)[C@H](C)[C@H]1C1=CC[C@@H]3[C@@]4(C)CC[C@H](O)C(C)(C)[C@@H]4CC[C@@]3(C)[C@]1(C)CC2)C(=O)O (stereo not given in full) = 5.01

Query the reported inhibition at 10 µM for SK-OV-3; item: CC(=O)OCc1ccccc1NC(=O)[C@]12CC[C@@H](C)[C@H](C)[C@H]1C1=CC[C@@H]3[C@@]4(C)CC[C@H](OC(C)=O)C(C)(C)[C@@H]4CC[C@@]3(C)[C@]1(C)CC2
1.19

Query the reported inhibition at 10 µM for SK-OV-3; item: C[C@H]1[C@H](C)CC[C@]2(C(=O)O)CC[C@]3(C)C(=CC[C@@H]4[C@@]5(C)CC[C@H](O)C(C)(C)[C@@H]5CC[C@]43C)[C@H]12 [URSOLIC ACID]
9.06

Query the reported inhibition at 10 µM for SK-OV-3; item: CC(=O)OCC(C)NC(=O)[C@]12CC[C@@H](C)[C@H](C)[C@H]1C1=CC[C@@H]3[C@@]4(C)CC[C@H](OC(C)=O)C(C)(C)[C@@H]4CC[C@@]3(C)[C@]1(C)CC2 (stereo not given in full)
70.5

Query the reported inhibition at 10 µM for SK-OV-3; item: CC(=O)OCCNC(=O)[C@]12CC[C@@H](C)[C@H](C)[C@H]1C1=CC[C@@H]3[C@@]4(C)CC[C@H](OC(C)=O)C(C)(C)[C@@H]4CC[C@@]3(C)[C@]1(C)CC2
54.8
